# System: L1210 leukemia ip in BDF1 mice, survival T/C
# runDescription: NCI In Vivo Anticancer Drug Screen. Data for tumor model L1210 Leukemia (intraperitoneal) in B6D2F1 (BDF1) mice
# conditionNotes: endpoint: mean survival time; dose: 100.0 mg/kg/injection; schedule: Q04DX002 (ip); vehicle: saline; higher = longer survival
Toxic doses and inconclusive results are not listed.
readoutType: T/C

1) CCC#CC(=O)OCCCC = 93 % of control
2) CCN(CC)Cc1ccccc1COC(=O)c1cccc(C)c1 = 90 % of control
3) CCOC=Nc1c(/C=C(/O)C(=O)OCC)c[n+]([O-])nc1OC = 96 % of control
4) O=P(O)(O)CCC(O)CO (centres undefined) = 94 % of control
5) CCN(/C=C1\CCOC1=O)CC = 101 % of control
6) CC12CCC(O)(CC1)CC2(O)c1ccccc1 (centres undefined) = 102 % of control
7) C/C=C/C=C/COC(=O)CCCCCCCCC = 100 % of control
8) CC([NH-])C(C)[NH-].CC([NH-])C(C)[NH-].[Cl][Co][Cl] (centres undefined) = 112 % of control
9) COC(=O)c1cc(NC(=O)Nc2cc([N+](=O)[O-])ccc2C)cc(C(=O)OC)c1 = 120 % of control
10) O=C1OC(c2cccc([N+](=O)[O-])c2)=N/C1=C\c1cccc2ccccc12 = 96 % of control
11) O=C(CCNc1ccccc1)c1ccccc1 = 105 % of control
12) O=[N+]([O-])c1ccccc1N1N=NC2CC/C(=C\c3ccc(Cl)cc3)C21N1CCOCC1 (centres undefined) = 108 % of control
13) CN(C)c1ccc(/C=N/O)cc1 = 103 % of control
14) CCCCCCCC(=O)N1C(C)CCCC1C (centres undefined) = 114 % of control
